Reference source for all entries: paper PMC11714206

Biological target: MyD88^TIR (Homo sapiens, UniProt Q99836)
Construct: MyD88 (residues 148–296); 6xHis; made in house; host or cells: E. coli BL21 (DE3)
Sequence (Q99836 148-296): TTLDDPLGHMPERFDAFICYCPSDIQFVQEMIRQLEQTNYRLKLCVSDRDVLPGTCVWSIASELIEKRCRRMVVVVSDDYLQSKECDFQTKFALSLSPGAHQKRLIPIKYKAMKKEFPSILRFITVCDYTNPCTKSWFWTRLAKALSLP
Assay: T‐Surf phage library (P8 and P3) selection against MyD88^TIR, four rounds, NGS read counts
Format: binding
Details: P3_MyD88: rank by count after grouping
Experimental readout: Rank (after)

Past entries and their recorded results:
LQNQWKLALTKVASL : 100
YAFTGHLHRYLVQRL : 134
LKGGDSYFWSKQPYAL : 385
KMQKWKDALYEAPNL : 113
LKVEIWLQTLEKAEKP : 440

## Task For YTALNNSGFNTFRDND , write its Rank (after).
## Result 188

## Task Give the reported Rank (after) for this sequence. LKWGGSCLSIKLAYAM
## Result 445

## Task For the sequence KEVEGWRDALTKAANL , report Rank (after).
## Result 138

## Task Identify measured Rank (after) associated with KARQFGALREEKLRAA
## Result 425

## Task Return Rank (after) for the following sequence: YLKWGYPWFWDRLP
## Result 142

## Task Report measured Rank (after); entry is YAFTVHLHRYLVQRGG
## Result 448

## Task Please supply the value of reported Rank (after) for the item LKVEAGVRRWKKRAN
## Result 114

###

Target: MyD88^TIR (Homo sapiens)
Construct: MyD88 (residues 148–296); 6xHis; made in house; host or cells: E. coli BL21 (DE3)
Assay: T‐Surf phage library (P8 and P3) selection against MyD88^TIR, four rounds, NGS read counts
Type: binding
Conditions: P3 library, selection against MyD88, rank after grouping
Label rule, in plain words: P3_MyD88 Rank (after) of 500 and up is T, under 500 is F.

Use the examples below as a reference point.
SSFLQGLWRLLELSKK : T
NQWRNALTAAANLIGR : T
DHQLDLPRCKAIKPEILG : F

Proceed to the following item.
## Task In plain terms: is recorded P3_MyD88 Rank (after) at least 500 for FLSYRALEKRFGPLVQ ?
## Result T

###

Target: MAL^TIR (Homo sapiens)
Construct: MAL (residues 79–221); 6xHis; made in house; host or cells: E. coli BL21 (DE3)
Assay: T‐Surf phage library (P8 and P3) selection against MAL^TIR, four rounds, NGS read counts
Assay type: binding
Conditions: P8 library, 4R selection against MAL, rank before grouping
Experimental readout: P8_MAL Rank (before)
Note: the reply should be a number with no unit written.

Some solved cases for reference:
LFLWASLKQLLRSANC : 2142
SFLHFLLFSRPETASI : 1437
HLLKIVLEKFASHRSS : 2335
ALQYTILINLTNPTNF : 1962
LFFWDSLKHLLRCDGC : 2068

## Task Tell me measured P8_MAL Rank (before) for YFLHFLLFSLPATEYI please.
## Result 1473

## Task Consider the sequence TFLGHLYNTLVQACIH . State its measured P8_MAL Rank (before).
## Result 2598

## Task Give the value of P8_MAL Rank (before) reported for the following: LFFWESLKQPLRSEGR
## Result 2112

## Task Give recorded P8_MAL Rank (before). HFFWIQLKNILGENSF
## Result 2417

## Task Input QLIQHWIELHQHQLHL , output reported P8_MAL Rank (before).
## Result 2348

###

Biological target: MyD88^TIR (Homo sapiens)
Construct: MyD88 (residues 148–296); 6xHis; made in house; host or cells: E. coli BL21 (DE3)
Assay: T‐Surf phage library (P8 and P3) selection against MyD88^TIR, four rounds, NGS read counts
Assay type: binding
Conditions: P8_MyD88: rank by count before grouping
Parameter: Rank (before). Scope: all listed entries.
I only need the number, thanks.

Use these answered entries as a reference point.
IVQALWSKVHHSLTLF : 157
YASSSWYLDALVQILHARELF : 1856
NLSGWHILDGFLFDEF : 134
VANILGYHWIAREHFV : 2164

## Task Complete the entry with Rank (before) for PQDLEWFYERLFSQM
## Result 102

## Task Give the value of Rank (before) reported for the following: LGYHWTDWEYFVGIEA
## Result 3305

###

Target: MAL^TIR (Homo sapiens, UniProt P58753)
Construct: MAL (residues 79–221); 6xHis; made in house; host or cells: E. coli BL21 (DE3)
Sequence (P58753 79-221): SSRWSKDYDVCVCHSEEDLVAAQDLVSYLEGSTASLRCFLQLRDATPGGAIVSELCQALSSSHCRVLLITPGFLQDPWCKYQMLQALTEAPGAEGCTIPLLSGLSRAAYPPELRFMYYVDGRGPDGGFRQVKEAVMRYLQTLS
Experiment: T‐Surf phage library (P8 and P3) selection against MAL^TIR, four rounds, NGS read counts
Assay type: binding
Conditions: P3 library, selection against MAL, rank before grouping
Experimental readout: P3_MAL Rank (before)

# example entries with known answers
RGFLSHLRHYLQAKAH : 2430
LNGAIRIFGANCVMR : 2194
YAFTGHLRRYMVQRGV : 1370
SSFREGLWHLLELTKT : 3171
DWIREQLRPALKKRLP : 1989

## Task Name the recorded P3_MAL Rank (before) of the item YAFTDHLHRYLVQRSE in your answer.
## Result 1462

## Task Look up and state reported P3_MAL Rank (before) for RLLKWKEALKQRAL
## Result 2525

## Task Look up and state reported P3_MAL Rank (before) for HHNGSYCEALAEHKER
## Result 2815

## Task State, in one line, measured P3_MAL Rank (before) of RLWDRLRYLMPRNNHH
## Result 2325

###

Target: MAL^TIR (Homo sapiens, UniProt P58753)
Construct: MAL (residues 79–221); 6xHis; made in house; host or cells: E. coli BL21 (DE3)
Assay: T‐Surf phage library (P8 and P3) selection against MAL^TIR, four rounds, NGS read counts
Assay type: binding
Settings: P3 library, selection against MAL, rank by count after grouping
Experimental readout: P3_MAL Rank (after)
Reply briefly: the number, and no unit.

# count of solved cases: 4
YLNSGYPWRYDRLRFA : 750
VEPTQVRKQSGAVEM : 716
GGFLSHLFDAFSVSR : 749
VEPTQVRKQRCGGKC : 760

## Task For the sequence TSFREGLLRLLELSKK , give its reported P3_MAL Rank (after).
## Result 754

## Task Determine its reported P3_MAL Rank (after): RLQECKEALHQFHSWV
## Result 737

## Task State, in one line, measured P3_MAL Rank (after) of PNLRTTVPTYLMRTKT
## Result 726

###

Target: MAL^TIR (Homo sapiens)
Construct: MAL (residues 79–221); 6xHis; made in house; host or cells: E. coli BL21 (DE3)
Test: T‐Surf phage library (P8 and P3) selection against MAL^TIR, four rounds, NGS read counts
Type: binding
Details: P3 library, selection against MAL, rank after grouping
Reported P3_MAL Rank (after) values are given for each entry in this list.
Keep the answer to the number alone.

RAFVAHLYEALKKRAN : 547
KWFWDKLIYALSRIR : 545

## Task Note down P3_MAL Rank (after) recorded for YNFISHLHRYLVQRGV
## Result 562

## Task Specify P3_MAL Rank (after) for LKVESWRQALKQRAL and stop.
## Result 483

## Task # return recorded P3_MAL Rank (after) for entry YAFTSHLYDRLPAPQH
## Result 554

## Task Quick one: give measured P3_MAL Rank (after) for PNLRPKVRNYLIRTKT
## Result 532

## Task Fill in reported P3_MAL Rank (after) for this entry: LVAHEISKKMKIFCDH
## Result 490

## Task Identify P3_MAL Rank (after) associated with the sequence RGFLSHLRQHLKAKDH
## Result 497

## Task State, in one line, measured P3_MAL Rank (after) of ESIIYQLHRSSERVAN
## Result 501

###

Molecular target: MyD88^TIR (Homo sapiens, UniProt Q99836)
Construct: MyD88 (residues 148–296); 6xHis; made in house; host or cells: E. coli BL21 (DE3)
Assay: T‐Surf phage library (P8 and P3) selection against MyD88^TIR, four rounds, NGS read counts
Assay type: binding
Details: P8 library, selection against MyD88 TIR; rank by count before grouping
Threshold check on P8_MyD88 Rank (before): strictly below 500 is Criterion met; on or above 500 is Criterion not met.

Please review the entries below; each comes with its answer.
NYATSRWALDELVRIF : Criterion met
DPMVAEWVLNHLRFEL : Criterion met
ELDFSHFWLFDGQAT : Criterion met
DPQDLDWFYARLVRLF : Criterion not met
LRYDDPWFWEKLVFAM : Criterion met
QSAWALNQLLQIIDWH : Criterion met
FDYELQQSLFHALIMR : Criterion met
EWFYERLFSQMRKDIK : Criterion not met

## Task Find out if reported P8_MyD88 Rank (before) for YASYDDFWDRLIRMIE is less than 500
## Result Criterion met

## Task Given the entry DPQDLDLFYERLVRLF , would its reported P8_MyD88 Rank (before) be below 500?
## Result Criterion not met
